B1: ZNF263 (parent)
chain: EKPYKCPECGEIFAHSSNLLRHQR

Variants of: B1
ASSAY_SUMMARY: protein stability index of a GFP-peptide fusion (GPS, HEK-293T) (PSI 1-6); higher = more stable;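 also: lentivirally expressed fusions sorted by FACS into six bins by GFP to DsRed ratio, PSI derived from sequencing read proportions per bin multiplied by bin number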
EXPERIMENTAL_CONTEXT: c terminus: a fixed tail appended
QUANTITY: protein stability index

1) K5L | 2.39
2) K5G | 2.31
3) H15D | 3.96
4) H15L | 1.95
5) Y4W | 2.29
6) A14Q | 2.45
7) H15P | 2.54
8) L19V | 2.92
9) F13M | 2.1
10) S16N | 1.33
11) K5Y | 2.2
12) H15M | 1.56
13) N18C | 3.75
14) Q23I | 3.16
15) L19E | 1.91
16) C9M | 3.83
17) L20F | 1.78
18) L20V | 1.87
19) S16L | 3.26
20) K2Y | 3.34
21) P3A | 2.29
22) E1R | 2.9
23) A14D | 3.67
24) L19M | 2.38
25) K5W | 2.46
26) L20P | 1.84
27) H22R | 3.03
28) L19P | 2.18
29) P3I | 1.82
30) K5A | 2.91
31) G10L | 1.74
32) I12E | 2.94
33) H15V | 2.49
34) R24Q | 3.74
35) R24P | 3.44
36) G10Y | 1.69
37) C6W | 2.47
38) Q23M | 3.02
39) Y4N | 2.45
40) G10Q | 1.84
41) L19N | 1.64
42) I12Y | 3.01
43) K5C | 1.52
44) C9G | 3.84
45) R21V | 2.85
46) S16I | 2.96
47) Q23A | 2.21
48) H15S | 4.34
49) R24G | 3.7
50) R21W | 3.43
51) R24Y | 2.68
52) C9T | 3.02
53) Q23N | 2.88
54) N18P | 2.55
55) L19Q | 1.78
56) E1N | 2.31
57) E11C | 2.25
58) K2M | 2.59
59) L20Q | 2.96
60) E11N | 1.73
61) E8S | 2.28
62) C9K | 3.5
63) L19D | 2.78
64) P7D | 3.71
65) R24V | 3.54
66) F13S | 2.75
67) K2I | 1.68
68) G10M | 1.91
69) Y4I | 2.76
70) P7T | 1.82
71) N18D | 4.05
72) H22M | 2.64
73) G10P | 2.82
74) S16R | 2.3
75) R21F | 3.04
76) L20A | 1.79
77) L20C | 4.11
78) Y4M | 1.84
79) G10F | 2.03
80) R24F | 3.32
81) K5I | 3.39
